Kindly supply the reported growth values for the records listed here.
Tested on: K-562 leukemia
Assay: NCI-60 one-dose screen, 48 h (100 = growth as untreated, 0 = no growth, -100 = all killed)
Details: 10 µM unless noted
Compounds without any hit were thinned out: in the full panel of roughly 83,000, 20% have a hit.
Lab book: enter the figure in %, no units written.

Inquiry: Reported growth, molecule "CCOC(=O)Nc1cc(-c2ccc(C)c(NS(C)(=O)=O)c2)nn2c(C)nnc12" : ____
Reply text: 16.7

Inquiry: Endpoint output: growth of "Cc1ccc2nc(SCC(=O)Nc3ccc(-c4nc5ccccc5s4)c(Cl)c3)[nH]c2c1" . Value?
Reply text: 109

Inquiry: Form field: reported growth of "COc1ccc(/C=C2\CCc3ccccc3C2=O)cc1"
Reply text: 20.7

Inquiry: Please give the measured growth for this molecule: CCOC(=O)C1C(=O)NC(C(=O)OCC)(C(=O)OCC)C1CC (stereo not given)
Reply text: 114

Inquiry: Recorded growth of "ICCC(c1ccccc1)(c1ccccc1)c1ccccc1" , please.
Reply text: -9.2

Inquiry: Please report the recorded growth for "COc1ccc2c(c1)CC/C(=C\c1ccc(OCC(=O)Nc3nc4ccccc4s3)cc1)C2=O" .
Reply text: 84.7

Inquiry: Value lookup for growth; key = "O=C(COc1ccc(/C=C2\Oc3ccc4ccccc4c3C2=O)cc1)c1ccc([N+](=O)[O-])cc1"
Reply text: 79.4

Inquiry: Given the entry "COc1ccc(CNC(=O)c2c(C)n([O-])c3ccc(OC)cc3[n+]2=O)cc1" , report its measured growth.
Reply text: 90.8

Inquiry: Form field: reported growth of "NC(=O)c1cc(Cl)ccc1NC(=O)c1ccccc1-c1ccccc1"
Reply text: 11.5

Inquiry: Look up growth for this molecule: "O=C1NC(=O)/C(=C\c2ccco2)S1"
Reply text: 111

* * *

System: CCRF-CEM leukemia
Experiment: NCI-60 one-dose screen, 48 h (100 = growth as untreated, 0 = no growth, -100 = all killed)
Settings: 10 µM unless noted
About 83,000 compounds went through this panel and 20% of them were active in at least one assay; those are over-represented in the sample as a whole.
Kindly state growth for each of the entries shown.
Respond numerically; units are % and should not be typed.

Inquiry: Tell me the measured growth of "CCOC(=O)Nc1ccc2c3c(cccc13)-c1ccccc1-2" , please.
Reply text: 55.4

Inquiry: What value of measured growth is listed for "O=C(c1ccccc1)c1ccc(Oc2ccc([N+](=O)[O-])cc2[N+](=O)[O-])cc1" ?
Reply text: 27.4

Inquiry: growth for CC(=O)N1N=C(c2ccc(Nc3nc(NCCO)nc(NCCO)n3)cc2)CC1c1ccc(Cl)cc1 (stereo not given) ?
Reply text: 114

Inquiry: I would be grateful if you could share the reported growth for "O=C1Nc2ccc(C(=O)O)c(O)c2C1=O" .
Reply text: 94.9

Inquiry: # query: growth of entry "N/C(=N\c1nc2ccccc2s1)NC(=O)Nc1ccccc1Cl"
Reply text: 12.9

Inquiry: GET /values?readout=growth&item= "CCCCCCCCN(CCO)CCCCCCCC"
Reply text: 99.4

Inquiry: So what does the record say about growth for "O=C(Nc1cccc(Cl)c1)Nc1cccc(Cl)c1" ?
Reply text: 38.8

Inquiry: # get_value(readout='growth', item= "CCOc1nc(-c2ccco2)n2nc(-c3ccco3)cc2n1" )
Reply text: 102

Inquiry: Look up growth for this compound: CS(=O)(=O)N1CCN(Cc2cc3nc(-c4cccc5[nH]ncc45)nc(N4CCOCC4)c3s2)CC1 (tested in a mixture with another compound)
Reply text: 20.9

Inquiry: Need growth, item "Fc1ccc(-c2nn3c(-c4cc(C(F)(F)F)cc(C(F)(F)F)c4)nnc3s2)cc1"
Reply text: 87

Inquiry: # lookup: growth of "COc1ccc2c(c1)sc1nc(-c3ccc(N(C)C)cc3)cn12"
Reply text: 71.2

Inquiry: Any idea what its growth is? The compound is "CCOC(=O)N1CCC(N=C2CSc3nnc(-c4cc(C(F)(F)F)cc(C(F)(F)F)c4)n3N2)CC1"
Reply text: 6.9

Inquiry: # get_value(readout='growth', item= "COC(=O)[C@H]1[C@H]2C[C@@H]3c4[nH]c5cc(OC)ccc5c4CCN3C[C@H]2C[C@@H](OC(=O)/C=C/c2cc(OC)c(OC)c(OC)c2)[C@@H]1OC" )
Reply text: 5.36

Inquiry: Returns the measured growth for the input compound. Input: "O=C(NCCNC(=O)Oc1cccc2ccccc12)Oc1cccc2ccccc12"
Reply text: 65.2

Inquiry: Need growth of "Nc1nc2c(c(=O)[nH]1)C1(C(=O)Nc3ccccc31)c1c(nc(N)[nH]c1=O)N2" , thanks.
Reply text: 105

Inquiry: GET /values?readout=growth&item= "Cc1ccccc1NC(=O)N/C(N)=N/c1nc2ccccc2s1"
Reply text: 14.2

Inquiry: Quick one: growth of O=C1CSC(c2ccccc2Cl)N1c1nnc(Cn2nnc3ccccc32)o1 (stereo not given) ?
Reply text: 85.6

Inquiry: Give the measured growth of "COc1cnc2c(c1)C(=O)c1c-2n(CCCN2CCOCC2)c(=O)c2cc(F)ccc12" .
Reply text: 1.77

Inquiry: Which measured growth value corresponds to "CC(=O)[C@H]1CC[C@H]2[C@@H]3C[C@H](C)C4=CC(=O)CC[C@]4(C)[C@H]3C(=O)C[C@]12C" ?
Reply text: 104

Inquiry: Find the recorded growth belonging to "CC(=O)Nc1ccc(C(=O)COc2cccc(/C=C3\CCc4ccccc4C3=O)c2)cc1" and report it.
Reply text: 11.6

Inquiry: // returns reported growth for input COc1cc(/C=C/C(=O)CC(=O)/C=C/c2ccc(OC(=O)C3C4CC5CC(C4)CC3C5)c(OC)c2)ccc1OC(=O)C1C2CC3CC(C2)CC1C3 (stereo not given)
Reply text: 89.8

Inquiry: Quick check: growth of "Cc1ncc(C(=O)Nc2ccc(CN3CCN(C)CC3)c(C(F)(F)F)c2)cc1C#Cc1cncc2ncccc12" ?
Reply text: 66.7

Inquiry: Returns the measured growth for the input compound. Input: "O=C1NC(=S)S/C1=C\c1cc(Br)ccc1O"
Reply text: 79.2

Inquiry: Quick check: growth of "O=C1Nc2ccc(Cl)cc2[C@@](C#CC2CC2)(C(F)(F)F)O1" ?
Reply text: 87.4

Inquiry: Query (compound): "Cc1nn2c(/C=C3/C(=O)Nc4cc(Cl)ccc43)c(-c3ccccc3)nc2s1" ; field requested: growth
Reply text: -14

Inquiry: Suppose we examine the compound Clc1ccc2c(c1)C(Br)c1cc(Cl)cc(Cl)c1-2 (stereo not given) ; what growth value has been reported?
Reply text: -37.8

Inquiry: Consider the compound shown here: "COP(=O)(OC)C(c1ccc(O)cc1)(c1ccc(O)cc1)c1ccc(O)cc1" What is its recorded growth?
Reply text: 5.74

Inquiry: # get_value(readout='growth', item= "COc1cccc2c1C(=O)c1c(O)c3c(c(O)c1C2=O)C[C@@](O)(C(C)=O)C[C@@H]3O[C@H]1C[C@H](N)[C@H](O)[C@H](C)O1" )
Reply text: -25.1

Inquiry: So what's the measured growth for this one? "OCCN1CCN(CCCN2c3ccccc3Sc3ccc(C(F)(F)F)cc32)CC1"
Reply text: 29.7

Inquiry: Would you mind telling me what growth value was observed for "O=C(c1ccc(Cl)cc1)c1ccc(Cl)cc1" ?
Reply text: 88.6

Inquiry: What value of growth has been recorded for this entry: "CC(=O)Nc1c(Cl)cc2c(c1Cl)Cc1cc([N+](=O)[O-])ccc1-2"
Reply text: 57.2

Inquiry: Item "Cc1ccc2nc3c(n2c1)C(=O)C(=O)c1ccccc1-3" has what recorded growth?
Reply text: -12.8

Inquiry: Give its growth value. Item: CC(=O)OC1Oc2cc(C)c(C)cc2-c2oc(=O)c(-c3ccccc3)cc21 (stereo not given)
Reply text: -37.8

Inquiry: For Cc1ccc(C2=NNC(c3sc(Cl)nc3Cl)C2)cc1 (stereo not given) , what is its reported growth?
Reply text: 18

Inquiry: Quick check: growth of "CCOC(=O)/C=C1/SC(=Nc2ccc(C#N)cc2)N(Cc2ccco2)C1=O" ?
Reply text: 0.581

Inquiry: Returns the measured growth for the input compound. Input: "O=c1c2c(=NCCCN3CCCC3)cc3c(=O)n(CCCN4CCCC4)c(=O)c4c(NCCCN5CCCC5)cc(c(O)n1CCCN1CCCC1)c2c4-3"
Reply text: 10.1

Inquiry: growth lookup needed for "C/C(=C\CCc1ccoc1)CC/C=C(\C)CCCNc1ccc(F)cc1" , thanks.
Reply text: 58.7

Inquiry: Would you kindly share the measured growth for Cc1ccc(C(NC(=O)c2ccccc2)c2ccc3cccnc3c2O)cc1 (stereo not given) ?
Reply text: 5.39

Inquiry: Any idea what growth was measured for "CC[n+]1c(/C=C/c2ccc(N3CCCC3)cc2)cccc1/C=C/c1ccc(N2CCCC2)cc1" ?
Reply text: -7.16

Inquiry: // growth lookup, key: "O=C(N/N=C/c1cccc([N+](=O)[O-])c1)c1ccc(Br)o1"
Reply text: 78.2
